test: Growth inhibition of mouse M17/ADR cells assessed as zone units at 50 ug/disk by disk diffusion agar colony formation assay; type: functional
Decision: Activity beneath 100 Zone units gives true; Activity meeting or exceeding 100 Zone units gives false.

A selection of reference data follows.
molecule	classification
CC1=C(CC/C(C)=C/CC[C@@]2(C)CC[C@H]([C@H](C)C(=O)O)OO2)C(C)(C)CCC1	true
C=C1CCCC(C)(C)C1CCC1(C)CC[C@H]([C@@H](C)C(=O)O)OO1 (single isomer, unassigned)	false

QUERY: hey, is Activity for COC(=O)[C@H](C)[C@H]1CC[C@@](C)(CCC2=C(C)CCCC2(C)C)OO1 lower than 100 Zone units or not?
RESULT: false

QUERY: hey, is Activity for CC(=O)CC/C=C(\C)CCC1=C(C)CCCC1(C)C lower than 100 Zone units or not?
RESULT: true
